Where these numbers come from: patent US11447504B2

Test system: SUDHL5
test-protocol: Induction of cytotoxicity (Assay 6), SUDHL5
conditions: read-out: Cytotox SUDHL5 IC50 (median); SUDHL5 cells, 5 hours, CellTiter-Glo
Property: IC50; scope: individual compounds
quantity-name: IC50 (nM)

compound: CCc1c2c(nn1C)CN(C)CCCCn1c(C(=O)O)c(CCCOc3cccc4ccccc34)c3ccc(Cl)c-2c31 (single isomer, unassigned; enantiomer 1) [Example 23]
reported-value: 140
--
compound: Cc1c2c(nn1C)N(C)CCCCCn1c(C(=O)O)c(CCCOc3cccc4cc(F)ccc34)c3ccc(Cl)c-2c31 [Example 75]
reported-value: 380
--
compound: Cc1c2c(nn1C)COCC(F)(F)CCn1c(C(=O)O)c(CCCOc3cccc4ccccc34)c3ccc(Cl)c-2c31 (single isomer, unassigned; enantiomer 1) [Example 56]
reported-value: 590
--
compound: CCc1c2c(nn1C)CN(C)CCCCn1c(C(=O)O)c(CCCOc3cccc4cc(F)ccc34)c3ccc(Cl)c-2c31 (single isomer, unassigned; enantiomer 1) [Example 6]
reported-value: 190
--
compound: Cc1c2c(nn1C)COCCCCn1c(C(=O)O)c(CCCOc3cccc4cc(F)ccc34)c3ccc(Cl)c-2c31 (single isomer, unassigned; enantiomer 2) [Example 17]
reported-value: 3300
